- assay-target: ALK2 (Homo sapiens, UniProt Q04771)
- Construct: purchased Life technology (Fredrick, Md.) and/or CARNA BIOSCIENCES Inc. (Kobe, Japan)
- Sequence (Q04771 21-509): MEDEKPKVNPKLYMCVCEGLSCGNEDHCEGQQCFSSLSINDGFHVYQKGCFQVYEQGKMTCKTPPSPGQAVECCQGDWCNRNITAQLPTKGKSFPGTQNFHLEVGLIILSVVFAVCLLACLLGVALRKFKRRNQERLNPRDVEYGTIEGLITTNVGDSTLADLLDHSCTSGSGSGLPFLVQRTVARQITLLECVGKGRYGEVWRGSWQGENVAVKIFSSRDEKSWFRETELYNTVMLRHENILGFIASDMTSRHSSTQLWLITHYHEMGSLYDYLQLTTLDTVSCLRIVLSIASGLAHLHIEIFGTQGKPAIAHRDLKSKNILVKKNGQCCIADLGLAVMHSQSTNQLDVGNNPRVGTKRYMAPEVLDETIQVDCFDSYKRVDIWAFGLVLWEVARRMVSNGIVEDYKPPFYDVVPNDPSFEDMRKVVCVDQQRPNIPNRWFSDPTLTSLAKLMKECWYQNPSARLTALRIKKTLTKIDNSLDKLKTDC
- measurement-description: TR-FRET enzymatic assay, ALK2 kinase, 1536-well
- Assay type: biochemical
- reported-conditions: TR-FRET, 10 nM ALK, Ulight topo II substrate 50 nM, ATP 10 uM (Table 1)
reported-property: IC50 (nM)

Cc1cc(-c2cnn3cc(N4CCC(N5CCOCC5)CC4)cnc23)c2ccccc2n1 ... 111

(1) COc1cc2c(-c3cnn4cc(N5CCC(N6CCN(C)CC6)CC5)cnc34)ccnc2cc1F
(2) Cc1cc(-c2cnn3cc(N4CCC(N5CCN(C)CC5)CC4)cnc23)c2ccccc2n1
(3) Cc1cc(-c2cnn3cc(N4CCC(N5CCNCC5)CC4)cnc23)c2ccccc2n1
Rank ascending by IC50. Output spec: labels arranged per the requested ranking.
2, 1, 3
